# Test system: MDA-N
# experimentalDetails: NCI tumour cell line growth inhibition, 48 h

smilesRecord	experimentalSystem	uom	relationalOperator	TGI
CC(C)=CCOc1cc(NC(=S)c2ccsc2C)ccc1Cl	MDA-N	µM	>	100
CCCCCCCCCC(=O)N[C@@H](c1ccco1)[C@@H](O)C(=O)O[C@H]1C[C@@]2(O)[C@@H](OC(=O)c3ccccc3)[C@@H]3[C@]4(OC(C)=O)CO[C@@H]4C[C@H](O)[C@@]3(C)C(=O)[C@H](OC(C)=O)C(=C1C)C2(C)C	MDA-N	µM	=	0.00909
Cc1ccc(-n2cc(-c3ccc(Cl)cc3)c3c(NN)ncnc32)cc1	MDA-N	µM	=	63.2
Cc1ccc(NC2=NCCO2)c2c1CCC2	MDA-N	µM	=	38.5
